Target: Estrogen receptor beta (Homo sapiens, UniProt Q92731)
Sequence (Q92731 whole entry): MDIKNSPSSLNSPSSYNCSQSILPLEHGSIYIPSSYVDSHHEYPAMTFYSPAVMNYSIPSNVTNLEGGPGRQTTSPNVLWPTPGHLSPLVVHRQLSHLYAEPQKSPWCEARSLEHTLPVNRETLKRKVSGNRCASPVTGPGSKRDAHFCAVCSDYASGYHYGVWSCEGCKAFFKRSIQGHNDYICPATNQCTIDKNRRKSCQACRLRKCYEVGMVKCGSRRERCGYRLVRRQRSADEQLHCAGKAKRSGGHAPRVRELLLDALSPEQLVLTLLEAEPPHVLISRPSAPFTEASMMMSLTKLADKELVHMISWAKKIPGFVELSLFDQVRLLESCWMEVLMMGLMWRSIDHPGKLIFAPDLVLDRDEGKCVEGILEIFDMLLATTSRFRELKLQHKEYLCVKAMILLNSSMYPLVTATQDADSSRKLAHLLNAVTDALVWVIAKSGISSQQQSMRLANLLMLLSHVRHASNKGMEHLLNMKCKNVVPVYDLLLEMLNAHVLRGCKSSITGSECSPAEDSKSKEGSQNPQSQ
Assay Summary: Agonist activity at human ERbeta expressed in HEK293T cells after 24 hrs by ERE-based dual luciferase reporter gene assay relative to E2
Assay type: cell-based
Measured Attribute: Efficacy

Cc1cccc(OS(=O)(=O)C2CC3OC2C(c2ccc(/C=C/c4cc(O)cc(O)c4)cc2)=C3c2ccc(O)cc2)c1 (configuration not stated)
-3%
O=S(=O)(Oc1ccccc1)C1CC2OC1C(c1ccc(/C=C/c3cc(O)cc(O)c3)cc1)=C2c1ccc(O)cc1 (configuration not stated)
37%
O=S(=O)(Oc1cccc(Cl)c1)C1CC2OC1C(c1ccc(/C=C/c3cc(O)cc(O)c3)cc1)=C2c1ccc(O)cc1 (configuration not stated)
60%
COc1cc(/C=C/c2ccc(C3=C(c4ccc(O)cc4)C4CC(S(=O)(=O)Oc5ccc(Br)cc5)C3O4)cc2)cc(OC)c1 (configuration not stated)
6%
O=S(=O)(Oc1cccc(Br)c1)C1CC2OC1C(c1ccc(/C=C/c3cc(O)cc(O)c3)cc1)=C2c1ccc(O)cc1 (configuration not stated)
-2%
O=S(=O)(Oc1ccc(-c2ccccc2)cc1)C1CC2OC1C(c1ccc(/C=C/c3cc(O)cc(O)c3)cc1)=C2c1ccc(O)cc1 (configuration not stated)
82%
O=S(=O)(Oc1ccc(O)cc1)C1CC2OC1C(c1ccc(/C=C/c3cc(O)cc(O)c3)cc1)=C2c1ccc(O)cc1 (configuration not stated)
51%
O=S(=O)(Oc1ccccc1C(F)(F)F)C1CC2OC1C(c1ccc(/C=C/c3cc(O)cc(O)c3)cc1)=C2c1ccc(O)cc1 (configuration not stated)
48%
COc1cc(/C=C/c2ccc(C3=C(c4ccc(O)cc4)C4CC(S(=O)(=O)Oc5ccccc5)C3O4)cc2)cc(OC)c1 (configuration not stated)
57%
COc1cccc(OS(=O)(=O)C2CC3OC2C(c2ccc(/C=C/c4cc(O)cc(O)c4)cc2)=C3c2ccc(O)cc2)c1 (configuration not stated)
52%

# value lookup — system Estrogen receptor beta (Homo sapiens, UniProt Q92731), readout Efficacy, item COc1cc(/C=C/c2ccc(C3=C(c4ccc(O)cc4)C4CC(S(=O)(=O)Oc5cccc(OC)c5)C3O4)cc2)cc(OC)c1 (configuration not stated)
37%

Lookup Cc1ccc(OS(=O)(=O)C2CC3OC2C(c2ccc(/C=C/c4cc(O)cc(O)c4)cc2)=C3c2ccc(O)cc2)cc1 (configuration not stated)
29%

Attribution: ChEMBL document CHEMBL4196131
